Record form. Attribute: Viability of tumor cells (% viability), Human renal cancer OS-RC-2 cells. Fill in for each entry.
test system: human renal cancer OS-RC-2 cells; assay: Growth inhibition test on human renal cancer OS-RC-2 cells (WST-1, % viability); assay type: cell-based; conditions: test compound 10 μmol/L, 72 hours, cells without test compound = 100%
Your answer should be a plain number; it is taken to be in %.

The compound listed as CCc1c(O)cc(O)c(C(=O)c2ccc(OC(C)C)cc2)c1CC(=O)N(CCO)CCOC has a reported Viability of tumor cells (% viability), Human renal cancer OS-RC-2 cells of 15

Viability of tumor cells (% viability), Human renal cancer OS-RC-2 cells in this record for CCc1c(O)cc(O)c(C(=O)c2ccc(OC)cc2)c1CC(=O)N1CCC(CO)CC1 : 25

According to the records, this compound CCc1c(O)cc(O)c(C(=O)c2ccc(OC)cc2)c1CC(=O)N(CCO)CCOC displays Viability of tumor cells (% viability), Human renal cancer OS-RC-2 cells of 18

Entry CCc1c(O)cc(O)c(C(=O)c2ccc(OC)cc2)c1CC(=O)N(CCO)CCO ; Viability of tumor cells (% viability), Human renal cancer OS-RC-2 cells = 66

Each recorded value in this set is attributed to patent US20090042883A1.
